half-life overview
Assay: Half life in iv dosed Sprague-Dawley rat
Type: ADME, organism-based
Conditions: in vivo
Just the number in h, nothing appended.

{"Smiles": "NC(=O)c1cccc2[nH]c(-c3ccc([C@@H]4CCCN4)cc3F)nc12", "Experimental Result": 1.9}

Now turn to the next molecule.
What measured half-life goes with `NC(=O)c1cccc2[nH]c(-c3ccc([C@@H]4CCCCN4)cc3F)nc12` ?
4.5

====

Assay: Drug level in mouse B16F10 transplanted TMZ-treated C57BL/6 mouse plasma […] at 25 mg/kg/day, po administered from day 6 to 10 post transplantation measured after 6 hrs of final dose in presence of TMZ
Type: ADME, organism-based, C57BL6
Design: route oral
Measurement Label: concentration at 6 h
The reply should read as a number followed by its unit.

// lookup concentration at 6 h for `NC(=O)c1cccc2[nH]c(-c3ccc([C@@H]4CCCN4)cc3F)nc12`
380 ng/mL
